Biological target: Recombinant (1-346) HPK1 (h) (Homo sapiens)
Construct: Recombinant (1-346) HPK1 (h) is incubated with 8 mM MOPS pH 7.0
Sequence (Q92918 1-346): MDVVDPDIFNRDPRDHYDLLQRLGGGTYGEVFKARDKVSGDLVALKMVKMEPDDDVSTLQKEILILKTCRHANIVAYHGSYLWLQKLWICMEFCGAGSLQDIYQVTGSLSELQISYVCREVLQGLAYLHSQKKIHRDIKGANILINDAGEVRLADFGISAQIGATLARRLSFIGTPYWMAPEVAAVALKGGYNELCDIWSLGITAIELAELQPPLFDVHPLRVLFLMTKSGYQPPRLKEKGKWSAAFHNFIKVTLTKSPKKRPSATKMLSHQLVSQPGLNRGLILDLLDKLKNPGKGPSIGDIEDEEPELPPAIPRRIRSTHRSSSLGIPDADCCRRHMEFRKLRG
Assay: HPK1 Human STE Kinase Enzymatic Radiometric Assay
Format: biochemical
Conditions: [gamma-33P]-ATP, myelin basic protein substrate, read-out: HPK1 IC50 nM Range*
measurement_kind: IC50

Please review the entries below; each comes with its answer.
C[C@@H]1CN(C)CCN1c1ccc(-c2cnc(N)c(-c3ccc4c(c3)CCNC4=O)n2)cc1 | 0.1 to 5 nM
CC(C)[C@H]1CN(c2ccc(-c3cnc(N)c(-c4ccc5c(c4)CCNC5=O)n3)c(F)c2)CCN1C | 0.1 to 5 nM
CC(C)N1CCN(c2ccc(-c3cnc(N)c(-c4cc5c(cc4F)C(=O)NCC5)n3)cc2)CC1 | 0.1 to 5 nM

input: Value lookup for IC50; key = CC(C)[C@H]1CN(c2ccc(-c3cnc(N)c(-c4cc5c(cc4F)C(=O)NCC5)n3)cc2)CCO1
output: 0.1 to 5 nM

input: Try the compound CC(C)N1C[C@H]2C[C@@]2(c2ccc(-c3cnc(N)c(-c4cc5c(cc4F)C(=O)NCC5)n3)cc2)C1
output: 0.1 to 5 nM

input: Try the compound CC(C)[C@H]1CN(c2ccc(-c3cnc(N)c(-c4ccc5c(c4)CCNC5=O)n3)c(F)c2F)CCO1
output: 0.1 to 5 nM

input: Try the compound CN1CCN(c2ccc(-c3cnc(N)c(-c4ccc5c(c4)CCNC5=O)n3)cc2F)CC1
output: 0.1 to 5 nM

input: Try the compound CN(C)Cc1cc(C2CCOCC2)ccc1-c1cnc(N)c(-c2cc3c(cc2F)C(=O)NCC3)n1
output: 6 to 10 nM

input: Try the compound CC(C)[C@@H]1CN(c2ccc(-c3cnc(N)c(-c4cc5c(cc4F)C(=O)NCC5)n3)c(F)c2F)CCO1
output: 0.1 to 5 nM

input: Try the compound Nc1ncc(-c2ccc(N3CCN(CC(F)(F)F)CC3)cc2)nc1-c1ccc2c(c1)CCNC2=O
output: 0.1 to 5 nM

input: Try the compound CN1CCN(c2ccc(-c3cc(-c4ccc5c(c4)CCNC5=O)c(N)nn3)cc2)CC1
output: 21 to 200 nM

input: Try the compound CC(C)N1CCN(c2ccc(-c3cnc(N)c(-c4ccc5c(c4)CCNC5=O)n3)cc2)CC1
output: 0.1 to 5 nM

input: Try the compound Nc1ncc(-c2ccc([C@@]34C[C@@H]3CN(CCF)C4)cc2)nc1-c1ccc2c(c1)CCNC2=O
output: 0.1 to 5 nM

input: Try the compound Nc1ncc(-c2ccc([C@]34C[C@H]3CN(C3CC3)C4)cc2)nc1-c1cc2c(cc1F)C(=O)NCC2
output: 0.1 to 5 nM

input: Try the compound Cc1nc2cc(-c3nc(-c4ccc(N5CCN(C)CC5)cc4)cnc3N)ccc2c(=O)[nH]1
output: 6 to 10 nM

input: Try the compound CC(=O)N1CCN(c2ccc(-c3cnc(N)c(-c4ccc5c(c4)CCNC5=O)n3)cc2)CC1
output: 0.1 to 5 nM

input: Try the compound C[C@H]1CCCCN1c1ccc(-c2cnc(N)c(-c3ccc4c(c3)CCNC4=O)n2)c(F)c1
output: 6 to 10 nM

input: Try the compound C[C@@H]1CCCN1c1ccc(-c2cnc(N)c(-c3ccc4c(c3)CCNC4=O)n2)c(F)c1
output: 6 to 10 nM

* * *

Target: Lck (h) (Homo sapiens)
Sequence (P06239 whole entry): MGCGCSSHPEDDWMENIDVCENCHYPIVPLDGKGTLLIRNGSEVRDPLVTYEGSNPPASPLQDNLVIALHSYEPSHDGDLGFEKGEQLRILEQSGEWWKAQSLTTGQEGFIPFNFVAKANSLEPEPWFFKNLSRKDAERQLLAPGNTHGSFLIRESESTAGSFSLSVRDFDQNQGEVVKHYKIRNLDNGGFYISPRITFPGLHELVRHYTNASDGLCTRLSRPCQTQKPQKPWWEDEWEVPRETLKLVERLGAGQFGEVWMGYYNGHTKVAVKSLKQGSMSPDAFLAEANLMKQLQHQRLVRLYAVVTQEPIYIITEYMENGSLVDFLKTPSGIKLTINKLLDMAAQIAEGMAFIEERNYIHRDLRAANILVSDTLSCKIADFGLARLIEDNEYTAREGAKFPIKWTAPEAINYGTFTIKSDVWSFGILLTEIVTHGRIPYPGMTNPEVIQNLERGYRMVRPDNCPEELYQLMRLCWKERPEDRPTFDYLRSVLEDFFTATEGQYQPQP
Experiment: Lck Human STE Kinase Enzymatic Radiometric Assay
Format: biochemical
Details: radiometric, [gamma-33P]-ATP, Cdc2 peptide substrate; read-out: Lck IC50, nM Range*
Experimental: (b) Lck Human STE Kinase Enzymatic Radiometric Assay Lck (h) is incubated with 50 mM Tris pH 7.5, 0.1 mM EGTA, 0.1 mM Na3VO4, 250 uM KVEKIGEGTYGVVYK (Cdc2 peptide), 10 mM MgAcetate and [gamma-33P]-ATP (specific activity and concentration as required). The reaction is initiated by the addition of the Mg/ATP mix. After incubation for 40 minutes at room temperature, the reaction is stopped by the addition of phosphoric acid to a concentration of 0.5%. […]
Known IC50 of a selection of compounds

Please review the entries below; each comes with its answer.
Nc1ncc(-c2ccc([C@]34C[C@H]3CN(C3CC3)C4)cc2)nc1-c1cc2c(cc1F)C(=O)NCC2 | 6 to 10 nM
CC(C)[C@@H]1CN(c2ccc(-c3cnc(N)c(-c4cc5c(cc4F)C(=O)NCC5)n3)c(F)c2)CCO1 | 21 to 200 nM
CC(C)N1C[C@@H]2C[C@]2(c2ccc(-c3cnc(N)c(-c4cc5c(cc4F)C(=O)NCC5)n3)cc2)C1 | 11 to 20 nM
CC(C)[C@H]1CN(c2ccc(-c3cnc(N)c(-c4ccc5c(c4)CCNC5=O)n3)c(F)c2)CCO1 | 21 to 200 nM
CC(C)[C@@H]1CN(c2ccc(-c3cnc(N)c(-c4ccc5c(c4)CCNC5=O)n3)c(F)c2)CCO1 | 21 to 200 nM

input: Value lookup for IC50; key = CC(C)[C@H]1CN(c2ccc(-c3cnc(N)c(-c4ccc5c(c4)CCNC5=O)n3)c(F)c2F)CCO1
output: 21 to 200 nM

input: Try the compound CN([C@H]1CCN(c2ccc(-c3cnc(N)c(-c4ccc5c(c4)CCNC5=O)n3)cc2)C1)S(C)(=O)=O
output: 11 to 20 nM

input: Try the compound Nc1ncc(-c2ccc([C@@]34C[C@@H]3CN(CCF)C4)cc2)nc1-c1ccc2c(c1)CCNC2=O
output: 6 to 10 nM

input: Try the compound CC(C)C1CCCN(c2ccc(-c3cnc(N)c(-c4ccc5c(c4)CCNC5=O)n3)c(F)c2)C1 (centres unmarked)
output: 21 to 200 nM

input: Try the compound Nc1ncc(-c2ccc(N3CCC(O)CC3)cc2)nc1-c1ccc2c(c1)CCNC2=O
output: 11 to 20 nM

input: Try the compound CC(C)[C@@H]1CN(c2ccc(-c3cnc(N)c(-c4ccc5c(c4)CCNC5=O)n3)c(F)c2)CCN1C
output: 11 to 20 nM
